The origin of these recorded values is the supplement of paper PMC10567573.

B1: MED27 (parent)
chain: YNENVYTEDGKLDIWSKSNYQVFQ

# Variants of: B1
# Experimental details: protein stability index of a GFP-peptide fusion (GPS, HEK-293T) (PSI 1-6); higher = more stable;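 further: lentivirally expressed fusions sorted by FACS into six bins by GFP to DsRed ratio, PSI derived from sequencing read proportions per bin multiplied by bin number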
# Reported conditions: c terminus: a fixed tail appended
Threshold rule: protein stability index greater than or equal to 2 is satisfied; below that, not satisfied.

Consider the worked cases shown below.
[[record]]
mutant = "L12H"
class_name = "satisfied"

[[record]]
mutant = "N4A"
class_name = "satisfied"


Query block: Assess whether reported protein stability index for Q24E sits at 2 or higher.
Result block: satisfied

Query block: Determine whether this variant has protein stability index no lower than 2: Y1H
Result block: satisfied

Query block: Please indicate if the recorded protein stability index for L12D meets or exceeds 2.
Result block: satisfied

Query block: Please tell me: is the variant Y20H at or over 2 in terms of protein stability index?
Result block: satisfied

Query block: hey, is protein stability index for this one >= 2? V22H
Result block: satisfied

Query block: Threshold query (protein stability index >= 2) on Q21G
Result block: not satisfied

Query block: Confirm if protein stability index reported for the variant I14M is 2 or above.
Result block: satisfied
